target: rat prostate spermidine synthase (Rattus norvegicus, UniProt Q99MI5); construct: purified spermidine synthase obtained from the rat ventral prostate; from tissue; host or cells: rat ventral prostate; experiment: Inhibition of purified spermidine synthase from rat ventral prostate; assay type: biochemical; conditions: Concentration 50; dcSAM 21 μm
Sequence (Q99MI5 1-302): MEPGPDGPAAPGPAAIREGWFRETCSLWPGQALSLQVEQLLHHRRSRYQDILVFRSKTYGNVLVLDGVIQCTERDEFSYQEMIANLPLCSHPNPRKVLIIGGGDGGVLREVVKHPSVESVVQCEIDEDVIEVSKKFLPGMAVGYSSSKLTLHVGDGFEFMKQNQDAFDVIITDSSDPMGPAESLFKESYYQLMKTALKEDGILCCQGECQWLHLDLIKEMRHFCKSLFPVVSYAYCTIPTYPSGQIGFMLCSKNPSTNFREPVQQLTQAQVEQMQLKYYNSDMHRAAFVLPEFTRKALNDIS
value-kind: % Inhibition Spermidine Synthase (%)

Example results:
* NCCCCCC(CCN)SC[C@H]1O[C@@H](n2cnc3c(N)ncnc32)[C@H](O)[C@@H]1O (stereo partly shown) [Compound Ic, S-Adenosyl-1,8-diamino-3-thiooctane] | 99
* C[S+](C)C[C@H]1O[C@@H](n2cnc3c(N)ncnc32)[C@H](O)[C@@H]1O.[O-][Cl+3]([O-])([O-])[O-] [IIa] | 0

P. CCCCCC(CC)[S+](C)C[C@H]1O[C@@H](n2cnc3c(N)ncnc32)[C@H](O)[C@@H]1O (stereo partly shown) [Compound IIb, S-Adenosyl-3-methylthiooctane]
Q. C[S+](C[C@H]1O[C@@H](n2cnc3c(N)ncnc32)[C@H](O)[C@@H]1O)C(CCN)CCCCCN (stereo partly shown) [IIc]
In terms of reported % Inhibition Spermidine Synthase, does P or Q have the smaller number? In your reply, give the label of the chosen option.
P
(P: 7%, Q: 84%)

----------
Molecular target: rat prostate spermine synthase (Rattus norvegicus, UniProt Q3MIE9)
Construct: with respect to rat prostate spermine synthase; from tissue; host or cells: rat prostate
Sequence (Q3MIE9 1-366): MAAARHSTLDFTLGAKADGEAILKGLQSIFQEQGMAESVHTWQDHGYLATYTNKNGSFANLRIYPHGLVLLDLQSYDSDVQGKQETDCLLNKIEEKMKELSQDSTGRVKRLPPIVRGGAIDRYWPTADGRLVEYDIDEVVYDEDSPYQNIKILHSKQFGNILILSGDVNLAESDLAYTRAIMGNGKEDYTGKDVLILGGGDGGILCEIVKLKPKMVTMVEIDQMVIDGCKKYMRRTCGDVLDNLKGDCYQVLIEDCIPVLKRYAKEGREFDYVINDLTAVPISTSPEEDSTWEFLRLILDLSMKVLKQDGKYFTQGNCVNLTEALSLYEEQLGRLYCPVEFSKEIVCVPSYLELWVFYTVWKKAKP
Assay: Inhibition of rat prostate spermine synthase
Type: biochemical
value-kind: inhibition of spermine synthase (in words)

- C[S+](C[C@H]1O[C@@H](n2cnc3c(N)ncnc32)[C@H](O)[C@@H]1O)C(CCN)CCCCCN (stereo partly drawn): only modest inhibition
- CCCCCC(CC)[S+](C)C[C@H]1O[C@@H](n2cnc3c(N)ncnc32)[C@H](O)[C@@H]1O (stereo partly drawn): only modest inhibition
